- Tested on: MOLT-4 leukemia
- Test Description: NCI tumour cell line growth inhibition, 48 h
Below, each entry is listed with its recorded TGI.

* Cn1cc(NC(=O)Nc2cc(C(=O)Nc3cc(C(=O)Nc4ccc5cc(S(=O)(=O)O)cc(S(=O)(=O)O)c5c4)n(C)c3)n(C)c2)cc1C(=O)Nc1cc(C(=O)Nc2ccc3cc(S(=O)(=O)O)cc(S(=O)(=O)O)c3c2)n(C)c1 | > 100 µM
* NC(=O)N/N=C\CC(O)(C(F)(F)Cl)C(F)(F)Cl | > 10 µM
* COc1cc([C@@H]2c3cc4c(cc3[C@@H](NCc3ccccc3F)C3COC(=O)[C@@H]32)OCO4)cc(OC)c1O (stereo partly drawn) | 7.4 µM
* O=C(C[C@@H]1CCCN2CCCC[C@H]12)N1c2ccccc2Sc2ccc(Cl)cc21 | 30 µM
* N#Cc1c(-c2ccc([N+](=O)[O-])cc2)c2c([nH]c1=O)-c1ccccc1CCC2 | > 100 µM
* CCOc1ccc(N(CC(=O)N2CC(=O)Nc3cc(C)c(C)cc32)C(C)=O)cc1 | > 100 µM
* Nc1ccc(Oc2ccc(C34CC5CC(C3)CC(c3ccc(Oc6ccc(N)cc6C(F)(F)F)cc3)(C5)C4)cc2)c(C(F)(F)F)c1 | > 100 µM

For the next question, use this compound.
The compound `c1cc(OCCN2CCCC2)ccc1CNc1ccc2nc(CCC3CCCCC3)[nH]c2c1` showed TGI equal to 5.81 µM

###

We begin with a simple list: items and their reported TGI.
- Test system: UO-31 renal
- Test Description: NCI tumour cell line growth inhibition, 48 h

• COC(=O)c1c(O)ccc2c1c1c(n2CCc2ccc(OC)c(OC)c2)C(=O)c2ccccc2C1=O = 34.6 µM

# lookup: NC(=O)c1ncn(C2C=CC(CP(=O)(O)O)C2)c1N (stereo unspecified) on UO-31 renal, TGI = > 100 µM

The measured TGI that `NCCCN(CCCCN(CCCN)Cc1ccccc1)Cc1ccccc1` showed for UO-31 renal is > 100 µM

TGI for UO-31 renal with input `CCCCCCCCCCCCCCCCn1cc[n+](C)c1` equals 2.24 µM

# `CN1CCN(C)C1c1ccc(C2N(C)CCN2C)cc1` with UO-31 renal: TGI is > 100 µM

Item: COC(=O)C1(Cc2ccccc2)Cc2ccccc2C1O (stereo unspecified) | System: UO-31 renal | TGI: > 100 µM

Simply: COC(=O)C(Cc1nc2ccc(Cl)cc2[nH]c1=O)C(=O)C(=O)Nc1cc(C)ccc1C (stereo unspecified) , UO-31 renal, TGI = > 100 µM

GET /values?item= `CCCCCCCCCCCCc1ccc(S(=O)(=O)O)cc1.[Cu+2]` &system= UO-31 renal returns TGI: > 100 µM

Sample `COc1cc2c3c(n(CCCN=[N+]=[N-])c(=O)c2cc1OC)-c1ccc(F)cc1C3=O` , system: UO-31 renal. Its TGI is > 100 µM

Bench note, UO-31 renal: `CC(C)(C)c1cc(C[P+](c2ccccc2)(c2ccccc2)c2ccccc2)cc(C(C)(C)C)c1O` , TGI reads 7.14 µM

TGI on UO-31 renal for `O=C(Nc1ccc(Cl)c(C(F)(F)F)c1)Nc1ccc(-c2cccnc2)cc1N1CCC(CO)CC1` is > 100 µM

Values were extracted from PubChem BioAssay (NCI).
